The measurements presented in this section are drawn from paper PMC11249646.

Molecular target: GST-CIB1 : F-scrambled peptide (Homo sapiens, UniProt Q99828)
Construct: made in house; host or cells: BL-21 plus RIL cells (E. coli)
Sequence (Q99828 whole entry): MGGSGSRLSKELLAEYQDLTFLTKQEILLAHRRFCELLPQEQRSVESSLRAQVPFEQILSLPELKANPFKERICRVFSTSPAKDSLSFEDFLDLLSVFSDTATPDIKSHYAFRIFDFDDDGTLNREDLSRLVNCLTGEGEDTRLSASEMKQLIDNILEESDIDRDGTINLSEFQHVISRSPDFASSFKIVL
Assay: FP scrambled-peptide counter screen, 1536-well format
Format: binding
Settings: Table S3, counterscreen; negative = inhibition
Definition: the class of an entry is the range in low = under -40%, mid = from -40% up to 40%, high = 40% and over that contains its Efficacy (%) (counterscreen).

Q: Tag the class for O=C(NC1=CC(=O)[C@H]2O[C@H]2C1=O)c1ccccc1O [NCGC00168093-01]
Result: low

Q: Sort NS(=O)(=O)c1ccc(Nc2nc(-c3ccccc3)cs2)cc1.O=C(O)C(F)(F)F [NCGC00262411-01] into one of the categories.
Result: low

Q: Exam item: assign O=C(Nc1ccc(S(=O)(=O)N2CCOCC2)cc1)c1cc(Cl)ccc1NS(=O)(=O)c1ccc(Cl)s1.O=C(O)C(F)(F)F [NCGC00249417-01] to the correct category.
Result: high

Q: Band for the recorded Efficacy (%) (counterscreen) of Nc1nc2c(s1)C(c1ccccc1)CC(=O)N2 (stereo not shown) [NCGC00422009-03] ?
Result: low

Q: Just checking, what class would you give COC(=O)c1ccc(O)c2ncc(-c3ccc(C(=O)NCCCN(C)C)cc3)cc12.O=C(O)C(F)(F)F [NCGC00189510-01] here?
Result: high

Q: Which class holds NC(=O)C1CCN(c2ncc(Br)s2)CC1 [NCGC00184919-01] ?
Result: low

Q: State the class of the compound shown: NS(=O)(=O)c1ccc(Cc2cn(-c3nc(C(=O)O)cs3)nc2-c2ccc(F)c(F)c2)cc1.O=C(O)C(F)(F)F [NCGC00356753-01]
Result: high

Q: Which class is correct for the following compound? Cc1ccc(C(=O)NC(c2ccco2)c2cc(Cl)c3cccnc3c2O)cc1 (stereo not shown) [NCGC00188372-01]
Result: high

Q: Which bin, given its Efficacy (%) (counterscreen), does NC(=O)C1CCN(c2nc(-c3ccccc3N)cs2)CC1.O=C(O)C(F)(F)F [NCGC00183555-01] occupy?
Result: mid

Q: Class label required: C[n+]1cc2c3c(ccc2c2ccc4cc5c(cc4c21)OCO5)OCO3.[Cl-] [NCGC00015959-09]
Result: mid
